QUANTITY_MEASURED: melting point (°C)
Unit °C implied. Number only.

Below are worked cases with known answers.
Exercise: Respond only with melting point recorded for Nc1ncc(-c2ccc(=O)[nH]n2)c(-c2ccc(Cl)c(Cl)c2)n1
Solution: 300

Exercise: Return value of melting point for input CCCCCCOc1ccccc1-c1nc(N)ncc1-c1ccc(=O)n(C(C)C)n1 , no commentary.
Solution: 92

Exercise: Query melting point for Cc1ccccc1-c1nc(N)ncc1-c1ccc(=O)n(C(C)C)n1
Solution: 203

Exercise: Fill in melting point for record Cc1ccc(-c2nc(N)ncc2-c2ccc(=O)n(C)n2)cc1
Solution: 230

Exercise: Respond only with melting point recorded for CCCOc1ccc(-c2nc(N)ncc2-c2ccc(=O)n(C(C)C)n2)cc1
Solution: 175

Exercise: State its melting point for this compound: CC(C)n1nc(-c2cnc(N)nc2-c2ccsc2)ccc1=O
Solution: 234

New cases:
Exercise: Complete the entry with melting point for CCCOc1ccccc1-c1nc(N)ncc1-c1ccc(=O)n(C(C)C)n1
Solution: 145

Exercise: Please report the measured melting point for CC(C)n1nc(-c2cnc(N)nc2-c2cccc(OCCCF)c2)ccc1=O
Solution: 123

Exercise: Kindly indicate its recorded melting point. Item: CCOc1cccc(-c2nc(N)ncc2-c2ccc(=O)n(C(C)C)n2)c1
Solution: 142
